Method: epoxide assay of chemical reactivity (alkylating assay using 4-(p-nitrobenzyl) pyridine)
Type: physicochemical
Design: key: 1—least chemical reactivity/biological activity; 6—most chemical reactivity/biological activity
Run conditions: reactivity in epoxide assay; rank 1 to 6
Answer each item with its documented Chemical reactivity (ranking).
Answers are plain numbers.

[
  {
    "Compound": "C(CCOCC1CO1)COCC1CO1 (stereo not drawn)",
    "Chemical reactivity (ranking)": 6
  }
]

Batch lookup, Chemical reactivity (ranking) per entry.
1. C(COCC1CO1)OCC1CO1 (stereo not drawn)
2. OCC(COCC1CO1)OCC1CO1 (stereo not drawn)
3. O=C(OCC1CCC2OC2C1)C1CCC2OC2C1 (stereo not drawn)
4. Oc1cccc(OCC2CO2)c1 (stereo not drawn)
5. C1CC(COCC2CO2)CCC1COCC1CO1 (stereo not drawn)

[A]
2
5
1
4
3

* * *

System: rat pup ovaries (ovarian follicles)
Method: in vitro ovarian culture bioassay of follicle depletion (ovaries cultured 8 days, histology, follicle counts)
Type: cell-based
Run conditions: diepoxide 30 μM + Trip 5 nM, ovaries cultured 8 days; rank 1 to 6
Readout: Biological activity (ranking, follicle depletion)

[
  {
    "Molecule": "C1CC(COCC2CO2)CCC1COCC1CO1 (stereo not drawn)",
    "Reported": 4
  },
  {
    "Molecule": "Oc1cccc(OCC2CO2)c1 (stereo not drawn)",
    "Reported": 1
  },
  {
    "Molecule": "C(COCC1CO1)OCC1CO1 (stereo not drawn)",
    "Reported": 5
  },
  {
    "Molecule": "OCC(COCC1CO1)OCC1CO1 (stereo not drawn)",
    "Reported": 2
  },
  {
    "Molecule": "C(CCOCC1CO1)COCC1CO1 (stereo not drawn)",
    "Reported": 3
  }
]

Now look at this one.
[Q] Tell me its Biological activity (ranking, follicle depletion) given O=C(OCC1CCC2OC2C1)C1CCC2OC2C1 (stereo not drawn) as the entry.
[A] 6
